test: modulators of glucocorticoid suppression of NF-kB, cell-based, luciferase, IL-1B stimulus, dexamethasone (AID 624486); conditions: NF-kB luciferase reporter, IL-1B + dexamethasone, luminescence; measured here: IL-1B alone, no Dex
Definition: the class of an entry is the range in bin 0 (below -0.3), bin 1 (-0.3 to below 0.7), bin 2 (0.7 or more) that contains its z-score.

Worked examples follow.
COc1ccc(-c2cc3c(N)ncnc3o2)cc1 = bin 2
NS(=O)(=O)c1ccc(N=Nc2c(O)[nH]c3ccc(Cl)cc23)cc1 = bin 2
CCn1c(-c2nonc2N)nc2ccncc21 = bin 1
Cc1ccc(NC(=O)CC2CC2)cc1-c1ccc(C(=O)NCC2CC2)cc1 = bin 2
Cn1cc(C2=C(c3cccc(N)c3)C(=O)NC2=O)c2ccccc21 = bin 0

q: Please let me know in which category the item COc1cccc(C2=C(c3cn(C)c4ccccc34)C(=O)NC2=O)c1 belongs.
a: bin 0

q: Please report the category associated with NS(=O)(=O)c1cccc(NC2CC(c3ccc(F)cc3)NN2)c1 (centres undefined) , nothing else.
a: bin 1

q: Which class does O=C1NC(=O)C(c2ccc(Cl)cc2)=C1Nc1ccc(Cl)c(C(=O)O)c1 fall in?
a: bin 2

q: Given OCCn1c(-c2ccncc2)c(-c2ccc(F)cc2)c2ncccc21 , name the class its z-score places it in.
a: bin 1

q: Given Cc1cc(O)cc(C)c1/C=C/c1cncc(C(N)=O)c1 , name the class its z-score places it in.
a: bin 1

q: Band for N#Cc1c(C(=O)c2ccccc2)cnn1-c1ccccc1 ?
a: bin 2

q: Hi there! Could you help me figure out the category for CCn1c(-c2nonc2N)nc2ccc(F)cc21 please?
a: bin 0

q: // return the class label for COc1cc2c(cc1Nc1nc(Nc3ccsc3C(N)=O)c3cc[nH]c3n1)N(C(=O)CN(C)C)CCC2(C)C
a: bin 1

q: Field: class (z-score) — entry: Nc1c(C(=O)c2cccc(-c3cccnc3)c2)cnn1-c1ccc(F)cc1F
a: bin 2

q: # bin label for Cc1cc(O)cc(C)c1/C=C/c1cncc(-c2nn[nH]n2)c1
a: bin 1

q: Which class does Cc1ccc(O)cc1Nc1ccnc2ccc(S(C)(=O)=O)cc12 fall in?
a: bin 0

q: Please classify: COc1ccc(O)c(C(=O)c2ccc(C(=O)O[C@H]3CCCNC[C@@H]3NC(=O)c3ccncc3)cc2)c1F
a: bin 0

q: Which category fits this record: N=C1N=C(N)C(=Cc2ccc3ncccc3c2)S1
a: bin 2
